Test target: CFTR (Homo sapiens, UniProt P13569)
Sequence (P13569 whole entry): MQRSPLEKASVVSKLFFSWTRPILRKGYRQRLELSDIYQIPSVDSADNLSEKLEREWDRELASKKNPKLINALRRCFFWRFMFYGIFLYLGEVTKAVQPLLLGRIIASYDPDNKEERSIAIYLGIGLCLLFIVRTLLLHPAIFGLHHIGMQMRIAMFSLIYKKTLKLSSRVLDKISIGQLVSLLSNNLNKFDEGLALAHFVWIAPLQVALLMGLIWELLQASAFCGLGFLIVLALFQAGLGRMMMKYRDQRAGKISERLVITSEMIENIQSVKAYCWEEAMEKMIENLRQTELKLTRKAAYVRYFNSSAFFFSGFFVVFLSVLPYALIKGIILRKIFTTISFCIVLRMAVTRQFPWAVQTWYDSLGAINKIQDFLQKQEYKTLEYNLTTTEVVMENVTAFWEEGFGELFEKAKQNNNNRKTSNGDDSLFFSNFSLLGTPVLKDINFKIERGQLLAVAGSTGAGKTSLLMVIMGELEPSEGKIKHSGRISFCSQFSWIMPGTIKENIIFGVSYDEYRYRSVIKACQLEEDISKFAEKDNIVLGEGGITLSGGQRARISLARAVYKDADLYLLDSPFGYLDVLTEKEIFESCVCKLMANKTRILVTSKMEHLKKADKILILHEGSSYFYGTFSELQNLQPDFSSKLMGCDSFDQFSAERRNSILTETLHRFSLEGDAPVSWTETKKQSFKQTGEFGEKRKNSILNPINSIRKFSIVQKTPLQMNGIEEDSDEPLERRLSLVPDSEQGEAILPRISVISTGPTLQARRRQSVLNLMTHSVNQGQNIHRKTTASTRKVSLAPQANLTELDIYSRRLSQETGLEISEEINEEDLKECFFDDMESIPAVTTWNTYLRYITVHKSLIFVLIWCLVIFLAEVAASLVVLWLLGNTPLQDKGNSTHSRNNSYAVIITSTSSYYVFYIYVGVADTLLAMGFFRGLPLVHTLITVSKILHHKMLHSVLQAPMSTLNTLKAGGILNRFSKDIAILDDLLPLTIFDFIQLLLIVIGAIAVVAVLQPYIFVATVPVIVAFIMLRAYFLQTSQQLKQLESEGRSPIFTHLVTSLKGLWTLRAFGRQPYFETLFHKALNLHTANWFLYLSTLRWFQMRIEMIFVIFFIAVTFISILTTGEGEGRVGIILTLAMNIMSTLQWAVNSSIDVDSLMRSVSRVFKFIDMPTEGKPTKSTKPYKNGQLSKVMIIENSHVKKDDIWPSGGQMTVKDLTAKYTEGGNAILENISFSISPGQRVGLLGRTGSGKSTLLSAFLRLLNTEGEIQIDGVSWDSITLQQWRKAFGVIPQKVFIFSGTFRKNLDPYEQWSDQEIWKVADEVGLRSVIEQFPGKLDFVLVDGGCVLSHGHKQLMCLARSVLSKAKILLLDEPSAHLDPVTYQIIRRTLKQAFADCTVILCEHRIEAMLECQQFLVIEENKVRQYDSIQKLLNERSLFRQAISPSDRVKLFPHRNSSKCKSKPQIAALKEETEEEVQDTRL
Experiment summary: Apical Cl− current in CFTR-expressing FRT cells
Condition summary: Ki is compound concentration giving 50% inhibition of apical membrane Cl− current in CFTR-expressing FRT cells
Parameter: Ki. Scope: all listed entries.

# annotated cases, reported Ki shown
Molecule: Cc1ccc(NCC(=O)NN=Cc2cc(Br)c(O)c(Br)c2O)cc1 [GlyH-116]
Ki: 10 µM
//
Molecule: O=C(NN=Cc1cc(Br)c(O)c(Br)c1O)C(=O)Nc1ccc2ccccc2c1 [OxaH-203]
Ki: > 50 µM

IN: Find the recorded Ki belonging to O=C(NNCc1cc(Br)c(O)c(Br)c1O)C(=O)Nc1ccc2ccccc2c1 [OxaH-303] and report it.
OUT: 10 µM

IN: For the molecule O=C(CNc1ccc2ccccc2c1)NNC(=O)c1cc(Br)c(O)c(Br)c1 [GlyH-202] , what Ki is on record?
OUT: 22 µM

IN: Report Ki for Cc1ccccc1NCC(=O)NN=Cc1cc(Br)c(O)c(Br)c1O [GlyH-117] please.
OUT: 25 to 50 µM

----------
Test target: CFTR (Homo sapiens)
Experiment summary: Apical Cl− current in CFTR-expressing FRT cells
Type: cell-based
Condition summary: 50 μM; apical membrane Cl− current, FRT cells
Value kind: % inhibition at 50 μM (%)
Form entry: value (%) — number only.

Here are 3 compounds together with their reported answers.
Cpd smiles: O=C(COc1ccc2ccccc2c1)NN=Cc1cc(Br)c(O)c(Br)c1O
% inhibition at 50 μM / %: 84
--
Cpd smiles: O=C(CNc1ccc2ccccc2c1)NNC(=O)c1cc(Br)c(O)c(Br)c1
% inhibition at 50 μM / %: 57
--
Cpd smiles: COc1c(Br)cc(C=NNC(=O)CNc2ccc3ccccc3c2)c(O)c1Br
% inhibition at 50 μM / %: 56

IN: // % inhibition at 50 μM lookup, key: O=C(NNCc1cc(Br)c(O)c(Br)c1)C(=O)Nc1ccc2ccccc2c1
OUT: 78

IN: Quick one: % inhibition at 50 μM of O=C(NNCc1cc(Br)c(O)c(Br)c1O)C(=O)Nc1ccc2ccccc2c1 ?
OUT: 70

IN: Fill blank: measured % inhibition at 50 μM of the compound O=C(COc1ccc2ccccc2c1)NN=Cc1cc(Br)c(O)c(Br)c1 is ____.
OUT: 86

----------
Test target: CFTR (Homo sapiens)
Experiment summary: Apical Cl− current in CFTR-expressing FRT cells
Condition summary: Ki is compound concentration giving 50% inhibition of apical membrane Cl− current in CFTR-expressing FRT cells
pKi: −log10 of the molar value.
// label = Yes if pKi is not less than 5, otherwise No

// below: answered molecules
Molecule: O=C(CNc1ccc(Cl)cc1)NN=Cc1cc(Br)c(O)c(Br)c1 [GlyH-114]
Discrete label: Yes

Molecule: O=C(COc1ccc2ccccc2c1)NN=Cc1cc(Br)c(O)c(Br)c1O [AceH-401]
Discrete label: No

Molecule: O=C(NNC(=O)c1cc(Br)c(O)c(Br)c1)C(=O)Nc1ccc2ccccc2c1 [OxaH-204]
Discrete label: No

Molecule: O=C(CNc1ccc(Cl)cc1)NN=Cc1cc(Br)c(O)c(Br)c1O [GlyH-115]
Discrete label: Yes

Molecule: CC(=NNC(=O)CNc1ccc2ccccc2c1)c1cc(Br)c(O)c(Br)c1 [GlyH-109]
Discrete label: Yes

Please look at the following molecule next.
IN: State whether the measured pKi reaches 5, counting equality as reaching it, for COc1c(Br)cc(C=NNC(=O)CNc2ccc3ccccc3c2)c(O)c1Br [GlyH-103]
OUT: No

Numbers sourced from paper PMC2229623.
